experiment: NCI Yeast Anticancer Drug Screen. Data for the wt2 strain (AID 169);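 note: 0% = growth of vehicle-treated yeast cultures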; details: S. cerevisiae wt2 strain growth inhibition; at 11.0 µM; active compounds read high
About 79,000 compounds went through this panel and 15% of them were active in at least one assay; those are over-represented in the sample as a whole.
QUANTITY_MEASURED: growth inhibition (%)
Write the value in % as a bare number.

- COMPOUND: "CC(C)NCCCNc1c2ccccc2nc2cccc([N+](=O)[O-])c12"
  growth inhibition [%]: 94
- COMPOUND: "CC1(c2ccccc2)O[C@@H]2C[C@H]3[C@@H]4CCC5=CC(=O)C=C[C@]5(C)[C@@]4(F)[C@@H](O)C[C@]3(C)[C@]2(C(=O)CO)O1 (some centres not stated)"
  growth inhibition [%]: -2
- COMPOUND: "O=C1CSC(c2ccccc2)N1c1ccc(-c2ccc(-n3c(-c4ccccc4)nc4ccccc4c3=O)cc2)cc1 (configuration not stated)"
  growth inhibition [%]: -2
- COMPOUND: "CCN(CC)C(=S)N/N=C(\\C)c1ccccc1O"
  growth inhibition [%]: 6
- COMPOUND: "CO[C@@]1([C@@H](Cl)c2ccccc2)C(=O)N(C)/C(=C\\c2ccccc2)C(=O)N1C"
  growth inhibition [%]: -1
- COMPOUND: "Nc1ccc2cc(Br)ccc2c1Br"
  growth inhibition [%]: -5
- COMPOUND: "CC(C)=CCc1c2c(c(O)c3c(=O)c(-c4ccc(O)c(O)c4)coc13)C=CC(C)(C)O2"
  growth inhibition [%]: 77
- COMPOUND: "O=P(C(=S)Nc1c(Cl)cccc1Cl)(c1ccccc1)c1ccccc1"
  growth inhibition [%]: 15
- COMPOUND: "CC(CC/C(=N/O)c1ccccc1)(CC/C(=N\\O)c1ccccc1)[N+](=O)[O-] (configuration not stated)"
  growth inhibition [%]: -16
- COMPOUND: "O=C1Nc2ccc(Br)cc2C1=Nc1cccnc1"
  growth inhibition [%]: -20

Prompt line: Indicate its recorded growth inhibition; the compound in question is O=C(Nn1c(-c2ccccc2)nc2ccccc2c1=O)c1ccc(CS)cc1
Response line: 9

Prompt line: Look up growth inhibition of CCC(C)COC(=O)Nc1cccc(Cl)c1 (configuration not stated) and report it.
Response line: -2

Prompt line: Could you please provide reported growth inhibition for CCCCCCCC/C=C\CCCCCCCCN ? Thanks!
Response line: -24

Prompt line: Kindly indicate its recorded growth inhibition. Item: CC(CN(C)C)C(=O)/C=C/c1ccc(Cl)c(Cl)c1 (configuration not stated)
Response line: 14

Prompt line: Find the measured growth inhibition of CCCCCCCCCCCCCCCCCCN(C)C(COC)COP(=O)([O-])OCC[N+](C)(C)C (configuration not stated) and report it.
Response line: 97

Prompt line: Give me measured growth inhibition, please, for this compound: O=S(=O)(NC1CCCC(c2ccccc2)C1)c1ccccc1 (configuration not stated)
Response line: -3

Prompt line: Check the records and state growth inhibition for CC/C(=C(\c1ccccc1)c1ccc(OCC[N+](C)(C)C)cc1)c1ccccc1
Response line: 99

Prompt line: Recall and state the measured growth inhibition for C=CC(C)(C)N1C(=O)C(C(C)=O)=C(O)C1Cc1c[nH]c2ccccc12 (configuration not stated) .
Response line: -1

Prompt line: Give growth inhibition for COC(=N)c1ccc(O)c(C)c1
Response line: -2

Prompt line: Using known records, supply growth inhibition for O=S1(=O)CCC2=CC(C(F)(F)F)=CC(C(F)(F)F)=CN21
Response line: 51

Prompt line: Determine its reported growth inhibition: CN(C)CC1=Nc2cccc3cccc(c23)N1
Response line: -6

Prompt line: Recall and state the measured growth inhibition for COc1ccc2nc3cccc([N+](=O)[O-])c3c(NCCNCCO)c2c1 .
Response line: 4

====

The entries below are paired with their reported growth inhibition.
experiment: NCI Yeast Anticancer Drug Screen. Data for the mec2-1 strain (AID 157); details: S. cerevisiae mec2-1 strain, at 50.0 µM (retest, dose inferred, filed as 5.0), active compounds read high
Compounds without any hit were thinned out: in the full panel of roughly 79,000, 15% have a hit.
Supply the numeric figure in %, leaving out any unit text.

- COMPOUND: "CC(C)(CN1CCCCC1)C(=O)/C=C/c1c(Cl)cccc1Cl"
  QUANTITY_MEASURED: "growth inhibition"
  MEASUREMENT: 97
- COMPOUND: "Oc1ccc(C2(c3ccc(O)cc3)CCCC2)cc1"
  QUANTITY_MEASURED: "growth inhibition"
  MEASUREMENT: 99

Prompt line: Specify measured growth inhibition for O=P(C(=S)Nc1c(Cl)cccc1Cl)(c1ccccc1)c1ccccc1 .
Response line: 99

Prompt line: Complete the entry with growth inhibition for CCCCS(=O)(=O)Nc1ccc(Nc2c3ccccc3nc3ccccc23)c(OC)c1
Response line: 98

Prompt line: Please look at this compound and report its growth inhibition: C=C(C(=O)OC)N1C(=O)CC(C)C1=O (stereo unspecified)
Response line: 85

Prompt line: Quickly give me recorded growth inhibition for O=C(Nn1c(-c2ccccc2)nc2ccccc2c1=O)c1ccc(CS)cc1
Response line: 34

Prompt line: Determine its reported growth inhibition: O=[N+]([O-])c1ccc(/C=C\c2ccc3c(c2)OCO3)c([N+](=O)[O-])c1
Response line: 97

Prompt line: # return recorded growth inhibition for entry Cc1ccc(C)c(C(=N)c2ccccc2Cc2ccccc2)c1
Response line: 94

Prompt line: Let me know recorded growth inhibition for N#CCCC1C(C#N)C2(Cl)CC1(Cl)C(Cl)=C2Cl (stereo unspecified) , thanks.
Response line: 82

Prompt line: Identify the reported growth inhibition for the following entry. CCCCCCCCSC1=C(Cl)C(=O)C(OC)=C(OC)C1=O
Response line: 68

Prompt line: Output growth inhibition of CCOP(=O)(OCC)/C(C#N)=C/c1cccc(Oc2ccccc2)c1
Response line: 98

====

test: NCI Yeast Anticancer Drug Screen. Data for the wt1 strain (AID 149);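 note: 0% = growth of vehicle-treated wt1 cultures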; conditions: S. cerevisiae wt1 strain (SPY 50644) growth inhibition; at 100.0 µM
Compounds without any hit were thinned out: in the full panel of roughly 79,000, 15% have a hit. Active and inactive are the calls of the source. Cut-off read from the data, not from the text of the source: active = growth inhibition above about 70%; inactive = the rest.
Your answer must be one of the following: T = active, F = inactive

Examples from the recorded data:
- COMPOUND: "O=C1CC(C(O)(C(F)(F)F)C(F)(F)Cl)CCC1C(O)(C(F)(F)F)C(F)(F)Cl (stereo unspecified)"
  CLASS_NAME: "T"
- COMPOUND: "CCC1(O)C(=O)OCc2c1cc1n(c2=O)Cc2cc3c(N)cccc3nc2-1 (stereo unspecified)"
  CLASS_NAME: "F"
- COMPOUND: "COc1ccc(N=c2cc(-c3ccccc3)oc3ccccc23)cc1"
  CLASS_NAME: "F"
- COMPOUND: "CCCCCCC=C(C(=O)OCC)C(=O)OCC"
  CLASS_NAME: "F"
- COMPOUND: "O=Cc1ccccc1C=O"
  CLASS_NAME: "T"

Prompt line: Field: outcome | Entry: CSC(=S)N/N=C/c1ccccc1
Response line: F

====

test: NCI Yeast Anticancer Drug Screen. Data for the rad14 strain (AID 159);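 note: 0% = growth of vehicle-treated control cultures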; settings: S. cerevisiae rad14 strain growth inhibition; at 3.7 µM; active compounds read high
This is part of a sample that, as a whole, favours compounds with a hit. Of some 79,000 tested, about 15% had one in any assay.
Readings of growth inhibition for the listed molecules
Lab book: enter the figure in %, no units written.

Prompt line: Identify measured growth inhibition corresponding to S=C(NCc1ccccn1)N/N=C/c1ccccn1
Response line: 99

Prompt line: Specify measured growth inhibition for O=C(O)C(=Cc1ccc(-c2ccccc2)cc1)C(=O)O .
Response line: 8

Prompt line: Hello, please tell me recorded growth inhibition for this one: CN(C)CC1=Nc2cccc3cccc(c23)N1
Response line: 0

====

assay: NCI Yeast Anticancer Drug Screen. Data for the rad50 strain (AID 155);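 note: 0% = growth of vehicle-only cultures of the same strain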; conditions: S. cerevisiae rad50 strain growth inhibition; at 11.0 µM
This is part of a sample that, as a whole, favours compounds with a hit. Of some 79,000 tested, about 15% had one in any assay. Calls of active or inactive are those of the source. Cut-off read from the data, not from the text of the source: active = growth inhibition above about 70%; inactive = the rest.
Returns: one label drawn from active, inactive

Would you please look over these solved cases?
- COMPOUND: "O=Cc1ccccc1C=O"
  CLASS_NAME: "inactive"
- COMPOUND: "CC(CC/C(=N/O)c1ccccc1)(CC/C(=N\\O)c1ccccc1)[N+](=O)[O-] (configuration not stated)"
  CLASS_NAME: "inactive"
- COMPOUND: "Cc1cccc(/C=N/NC(=S)NC2CCCCC2)n1"
  CLASS_NAME: "inactive"
- COMPOUND: "O=C(NOC(=O)c1ccc([N+](=O)[O-])cc1)c1ccc(Cl)cc1"
  CLASS_NAME: "inactive"
- COMPOUND: "Fc1ccc(Nc2ccc3ccccc3c2)cc1"
  CLASS_NAME: "inactive"

Prompt line: // outcome(item) with item = CC1(C)C(O)OC(O)C1(C)C (configuration not stated)
Response line: inactive

Prompt line: I would be grateful if you could indicate the recorded call for Cc1cccc2c(NCCCN(C)C)c3c([N+](=O)[O-])ccc(C)c3nc12 .
Response line: active

Prompt line: I'd appreciate the recorded outcome for O=c1c2ccccc2nc(-c2ccc(Cl)cc2)n1O from this test.
Response line: active

Prompt line: Dear colleague, could you share the recorded outcome for COc1ccc(C(OCC2OC(n3cnc4c(=O)n(Cc5ccccc5[N+](=O)[O-])nnc43)C(O)C2O)(c2ccccc2)c2ccc(OC)cc2)cc1 (configuration not stated) when you have a moment?
Response line: inactive
